system: BT-549; test: NCI tumour cell line growth inhibition, 48 h
Active and inactive are the calls of the source. No stated cut-off is given here; in the data, active = GI50 up to about 1.1 µM and inactive = higher.
MEASURE: GI50

1) CN1C(=O)c2c(c3c4ccccc4n(C4OC(CO)C(O)C(O)C4O)c3c3[nH]c4ccccc4c23)C1=O (stereo not given)
4.99 µM (inactive)
2) CC(C)(CC(O)C#N)/[N+]([O-])=[N+](\[O-])C(C)(C)CC(O)C#N (stereo not given)
20.6 µM (inactive)
3) CCC(=O)Nc1cccc(/N=C/c2ccc(OC(=O)/C=C\c3ccccc3)cc2)c1
37 µM (inactive)

Form field GI50 for item N#CC12CC=C(c3ccccc3)N=C1NC(c1ccccc1)=CC2 (stereo not given) on BT-549: 40.6 µM (inactive)

So the reported GI50 for O=c1[nH]c(=O)n(C2OC(CO)C(O)C2O)c2nc(-c3ccc(-c4ccccc4)cc3)cnc12 (stereo not given) , on BT-549, turned out to be > 100 µM (inactive)

Entry OC(NN=C1CCCC1)(C(F)(F)Cl)C(F)(F)Cl , tested on BT-549, has a reported GI50 of > 10 µM (inactive)

Entry N#CCCN(CCC#N)c1ccc(/C=N\c2ccc(F)cc2)cc1 ; assay system BT-549; GI50 recorded at > 100 µM (inactive)

Per the reported BT-549 data, C[C@H](C1CC2(C)OC2(C)C(=O)O1)[C@H]1CC[C@H]2[C@@H]3[C@@H]4O[C@@H]4[C@@]4(O)CC=CC(=O)[C@]4(C)[C@H]3CC[C@]12C (stereo not given in full) has GI50 of > 50 µM (inactive)

The observed GI50 for CN(C)c1n/c(=N/Cc2ccco2)ss1 when tested with BT-549 stands at 18.6 µM (inactive)

BT-549 assay, compound C[C@@]12C[C@@H](c3ccccc3O1)N1CCCSC1=N2 , recorded GI50 = > 100 µM (inactive)

---

tested on: M19-MEL; experiment: NCI tumour cell line growth inhibition, 48 h
Calls of active or inactive are those of the source. Rule as the data show it: active = GI50 up to about 1.1 µM and inactive = higher.
MEASURE: GI50

1) Cc1c(C(=O)/C=C/c2ccc(Cl)cc2)[n+]([O-])c2ccccc2[n+]1[O-]
15.2 µM (inactive)
2) CCO[C@@H]1C2C=CC(C2)[C@H]1[N+](=O)[O-] (some centres undefined)
> 100 µM (inactive)
3) c1ccc2c3c([nH]c2c1)C1(CCCCC1)c1c([nH]c2ccccc12)C31CCCCC1
46 µM (inactive)

Moving on to the next compound.
// recorded GI50 for COc1ccc(OCC(=O)O)c2c1CCC(C(C)C)C2=O (centres undefined) : > 100 µM (inactive)

---

test system: NCI-H460; assay: NCI tumour cell line growth inhibition, 48 h
The source made the active and inactive calls. Cut-off read from the data, not from the text of the source: active = GI50 up to about 1.1 µM and inactive = higher.
Please answer using one outcome listed in true for active, false for inactive

Check out these entries, answers already filled in.
1) COc1ccc(N2C(=O)C(=O)N(C)C2=O)c2ccccc12
false
2) N#Cc1c2ccccc2c(Cc2ccc3c(c2)OCCOCCOCCOCCOCCO3)c2ccccc12
false
3) COc1ccc(/C=C\c2cc(OC)c(OC)c(OC)c2)cc1
true
4) COc1cc(/C=C2\CC3C4CC=C5C[C@@H](O)CC[C@]5(C)C4CC[C@]3(C)\C2=N\O)cc(OC)c1OC (stereo not given in full)
false

Q: # lookup: test call for COC12C=CC(CC1)C(C)(C)C2OS(C)(=O)=O (stereo not given)
Ans: false

Q: Give the logged outcome of this assay for the following compound: O=[N+]([O-])c1ccc(N2C[N+](c3ccccc3)=NC(c3ccccc3)=N2)cc1
Ans: false

Q: Give the logged outcome of this assay for the following compound: Cc1cc(N(CCC#N)S(C)(=O)=O)ccc1C=O
Ans: false

---

test system: SK-MEL-2; assay: NCI tumour cell line growth inhibition, 48 h
Calls of active or inactive are those of the source. No stated cut-off is given here; in the data, active = GI50 up to about 1.1 µM and inactive = higher.
MEASURE: GI50

1. N#Cc1c2ccccc2c(Cc2ccc3c(c2)OCCOCCOCCOCCOCCO3)c2ccccc12
6.34 µM (inactive)
2. COc1ccc(C2=Nn3c(nnc(Cc4ccc(Cl)cc4)c3=O)SC2)cc1
26.5 µM (inactive)
3. O=C(NNC(=S)Nc1ccccc1)c1cc(-c2ccccc2)nc2ccccc12
11.1 µM (inactive)
4. CCCCCCN(CCCCCC)CCC(=O)c1ccc2cc(Br)c3ccccc3c2c1
27.3 µM (inactive)
5. O=C(c1ccccc1)c1cc[n+](C2=C([N-]S(=O)(=O)c3ccccc3)C(=O)c3ccccc3C2=O)cc1
3 µM (inactive)

GI50 value, target or system SK-MEL-2, for CC1=C(c2nc3ccccc3s2)C(=O)OC1(C)C : > 100 µM (inactive)

Item C/C(CCOC1CCCCO1)=C(\C)[Si](C)(C)C (configuration not stated) was tested on SK-MEL-2; the reported GI50 is > 100 µM (inactive)

Readout GI50 for CN(C)C(=N/O)/C(=N\O)N(C)C , test system SK-MEL-2, was > 100 µM (inactive)

# GI50 measured on SK-MEL-2 for item Cc1cc([N+](=O)[O-])ccc1Sc1c2ccccc2nc2cc(Cl)ccc12 = 22.9 µM (inactive)

The reported SK-MEL-2 GI50 of c1ccc(CNc2c3c(nc4ccccc24)CCC3)cc1 is 13.8 µM (inactive)

Reading of GI50 for CC(=O)CC(=O)N1CCOC1=O with SK-MEL-2: > 10 µM (inactive)

SK-MEL-2 GI50 of CC[C@H]1C=CCC[C@@]2(C[C@@H]3CC[C@@H]4[C@H](C(=O)OCCCCCCCCCCCCCCCC(=O)N(CCCN)C[C@@H](O)CCN)[C@]5(CCC[C@@H](C)O5)NC(=[N+]34)N2)O1 is 0.229 µM (active)

---

system: T47D; assay: NCI tumour cell line growth inhibition, 48 h
The source made the active and inactive calls. No stated cut-off is given here; in the data, active = GI50 up to about 1.1 µM and inactive = higher.
MEASURE: GI50

Some compounds with recorded GI50:
1. CC12CCC(C(=O)n3c1nc1ccccc13)C(C)(C)O2 (centres undefined)
> 100 µM (inactive)
2. Cc1c2c(n(CCc3ccccc3)c1C)NN=C(C#N)S2(=O)=O
> 100 µM (inactive)
3. O=C1NC(c2ccccc2Cl)Nc2ccccc21 (centres undefined)
48.5 µM (inactive)

Let us examine a further case.
Short answer for COc1ccc2c(c1)[C@@]13CCCC[C@H]1[C@@H](C2)N(C)CC3=O : GI50 was 17.5 µM (inactive)

---

test system: U-251; assay: NCI tumour cell line growth inhibition, 48 h
Active and inactive are the calls of the source. Rule as the data show it: active = GI50 up to about 1.1 µM and inactive = higher.
Reported values of GI50 for individual entries

1. CCOC(=O)C(=O)Nc1c(C)cccc1C
> 100 µM (inactive)
2. COc1ccc(/C=N/N=C(\N)NO)cc1F
25 µM (inactive)
3. CCOC(=O)/C(C#N)=C1\N[C@H](C(=O)OCC)CO1
> 100 µM (inactive)
4. O=C1c2[nH]c3ccc(Br)cc3c2CCN1Cc1ccc(Cl)cc1
12.5 µM (inactive)
5. CSc1nc(=O)c2nc(-c3cccs3)c(-c3cccs3)nc2n1C
28.2 µM (inactive)

# GI50 measured on U-251 for item C[C@H](C1CC2(C)OC2(C)C(=O)O1)[C@H]1CC[C@H]2[C@@H]3[C@@H]4O[C@@H]4[C@@]4(O)CC=CC(=O)[C@]4(C)[C@H]3CC[C@]12C (stereo partly specified) = > 50 µM (inactive)

Summary line: N#Cc1c(O)c(/C=N/c2ncccn2)c(=O)n2c1[nH]c1ccccc12 , U-251, reported GI50 = > 100 µM (inactive)

Value (GI50, U-251) for record O=C1CCCC1CN1CCCC1 (stereo unspecified) = 23 µM (inactive)

---

test system: IGROV-1; assay: NCI tumour cell line growth inhibition, 48 h
Calls of active or inactive are those of the source. No stated cut-off is given here; in the data, active = GI50 up to about 1.1 µM and inactive = higher.
MEASURE: GI50

1) CCCN1CCC(=O)N(CCC(F)(F)C(F)(F)C(F)(F)C(F)(F)C(F)(F)C(F)(F)F)C1=S
> 100 µM (inactive)
2) Oc1ccc(Br)cc1/C=N/C1CCCCC1
24.1 µM (inactive)
3) O=C(Cc1ccc([N+](=O)[O-])cc1)OCC#CCOC(=O)Cc1ccc([N+](=O)[O-])cc1
> 10 µM (inactive)
4) COc1ccc(CC(C)N)cc1 (configuration not stated)
> 100 µM (inactive)
5) COc1ccc(/C=C2\c3cc(OC)c(OC)cc3CCN2C(=O)c2ccccc2)cc1OC
> 100 µM (inactive)
6) O=C1/C(=C/c2ccccc2Cl)COc2ccccc21
18.1 µM (inactive)
7) COc1cc2c(cc1OCCOS(C)(=O)=O)N=C[C@@H]1CCCN1C2=O
27.7 µM (inactive)
8) CCC(/C(=N/NC(=O)C[N+](C)(C)C)c1ccccc1)C1OC(=O)c2ccccc21 (configuration not stated)
> 100 µM (inactive)
9) CN(C)CCCn1c2ccccc2c2cnccc21
64.7 µM (inactive)
10) O=C1C(CN2CCCCC2)CCC1CN1CCCCC1 (configuration not stated)
32.1 µM (inactive)

Record NC1=NN(c2ccccc2)C(=O)C1/C(=N\NC(=O)c1cc2ccccc2cc1O)C(=O)Nc1ccc(Cl)cc1 (configuration not stated) . Reported GI50: 20 µM (inactive)

For record Cc1ccc(O)c(-c2cc(-c3cccc(Cl)c3)c(C#N)c(N)n2)c1 the listed GI50 is 6.93 µM (inactive)

Short answer for CN(C)/C=C/c1c2c(nc3ccccc13)C(=O)c1ccccc1C2=O : GI50 was 1.19 µM (inactive)

The molecule identified as CCN(CC)CCn1c(=O)c2c(C)c3oc4ccccc4oc3c(C)c2c1=O registered its GI50 at > 100 µM (inactive)

Form: molecule = COc1cc(/C=C/C(=O)O)ccc1OS(=O)(=O)O ; GI50 = > 100 µM (inactive)

Reported GI50 ( Cc1ccc(/N=C2/S/C(=C3/CCC=C3N3CCOCC3)N(c3ccc(Cl)cc3)/C2=N/c2ccc(C)cc2)cc1 ) = > 100 µM (inactive)

Value of GI50 reported for the molecule OC1OCC(COc2cc(Cl)c(Cl)cc2Cl)OC1O (configuration not stated) is 80.9 µM (inactive)
